B1: tRNA (parent)
chain: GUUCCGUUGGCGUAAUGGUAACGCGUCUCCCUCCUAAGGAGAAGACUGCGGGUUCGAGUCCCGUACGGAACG

Variants of: B1
Test: yeast fitness relative to wild type (ratio to wild type); higher = fitter; tRNA-Arg(CCU), competitive growth, 37 C, YPD
This sample holds only a part of the variants without activity.
readout kind: yeast fitness

# count of solved cases: 10
>  <sequence string>
GUCCGGUUGGCGUAAUGGUAACGCGUCUCCCUCCUAAGGGGAAGACUGCGGGUUCGAGUCCCGUACGGAACG

>  <yeast fitness>
≤ 0.5

$$$$
>  <sequence string>
GUUGCGUUGGCGUAAUGGUAACGCGUCUCCCUCCUAGGGAGAGGACUGCGGGUUCGAGUCCCGUACGGUACG

>  <yeast fitness>
≤ 0.5

$$$$
>  <sequence string>
GUUUCGUUGGCGUAAUGAUAACCGGUCUCCCUCCUAAGGAGAAGAGUGCGGGUUCGAGUCCCGGACGGAACG

>  <yeast fitness>
≤ 0.5

$$$$
>  <sequence string>
GUUCCGUUCGCGUAAUGGUAGCGCGUCUCCCUCCUAAGGAGAACACCGCGGGUUCGAGUCCCGUACGGAUCG

>  <yeast fitness>
≤ 0.5

$$$$
>  <sequence string>
GUUCCGUUGGCGUAAUGGUAACGGGUCUCCCUCCUAAGGAGAAGACUGUGGGUUGGAAUCCCGUACGGAACG

>  <yeast fitness>
0.764

$$$$
>  <sequence string>
GUUCCGUUGGCGUAAUGGUAACGGGUCUCCCUCCUAAGGAGAAGACUGCGGGUUCGAGUCCCGAAAGGAACG

>  <yeast fitness>
≤ 0.5

$$$$
>  <sequence string>
GUUCCGUUGGCGUAAUGGUGACGCGUCUCCCUCCUAAGGAGAAGACUGCAGGUUCGAGUCCCGUACGGAACG

>  <yeast fitness>
0.905

$$$$
>  <sequence string>
GUUCCGUUGGCGUAAUGGUAACGCGUCUCCGUCCUAAGGAGAAGACUGCGGGUUGGAGUCCCGUGCGGAACG

>  <yeast fitness>
≤ 0.5

$$$$
>  <sequence string>
GUUCCGUUGGCGAAGUGGUAACGCGUCUCCCUCCUAAGGAGAAGACUACGGGUUCGAGUCCCAUCCGGAACG

>  <yeast fitness>
≤ 0.5

$$$$
>  <sequence string>
GCUCCGUUGGCGAAAUGGUAACGCGUCUCCCUCCUAAGGAGAAGACUGCGGGUUCGAGUCCCGUACGGAACG

>  <yeast fitness>
0.805

$$$$

Please state yeast fitness for every variant in the list that follows.
1. GUUCGGUUGGGGUACUGGUAACGCGUCUCCCUCCUAAGGAGAAGACUGCGGGUUCGAGUCCCGUCCGGAACG
2. GUGCGGUUGACGUAAUGGUAACGCGUCUCGGUCCUAAGGAGAAGACUGAGGGUUCGAGUUCCGUACAGAACG
3. GUGCCGUUGGCGUAAUGGUAACGCGUCUCCCUCCUAAGGAGAAGACUGCGGGUGCGCGUCCCGUACGGAACG
4. GUUCCGUUGGCGUAAUGGUAACGCGUCUCCCUCCUAAGGUGGAGACUGCGGGUUCGUGUCCCGUACGGAACG

1: ≤ 0.5; 2: ≤ 0.5; 3: ≤ 0.5; 4: 0.576
